target: human IL-6 (human, UniProt P05231 30-212); test: SPR Biacore, supernatant, Protein A capture, 37 C
Sequence (P05231 30-212 limits assumed): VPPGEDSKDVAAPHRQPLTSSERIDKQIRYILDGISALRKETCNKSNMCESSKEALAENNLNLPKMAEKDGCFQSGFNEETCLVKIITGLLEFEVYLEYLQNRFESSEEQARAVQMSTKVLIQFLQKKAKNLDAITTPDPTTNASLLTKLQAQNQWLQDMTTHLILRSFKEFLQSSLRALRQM
Recorded kon values for a group of binders are listed next.
Express the result in M⁻¹ s⁻¹ but write the number alone.

binder="Anti-IL-6 antibody, heavy chain S35H, G66D, Q99F / light chain M32L, M50D, N52S, M88Q (antibody, IgG1, V domains shown, IgG1; variable domains only; VL is variant III) VH: EVQLVESGGGLVQPGGSLRLSCAASGFTFSPFAMHWVRQAPGKGLEWVAKISPGGSWTYYSDTVTDRFTFSLDTSKSTAYLQMNSLRAEDTAVYYCARFLWGYYALDIWGQGTLVTVSS VL: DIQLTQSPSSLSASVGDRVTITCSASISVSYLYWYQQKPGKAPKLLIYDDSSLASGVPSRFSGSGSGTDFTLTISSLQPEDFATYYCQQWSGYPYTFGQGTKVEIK" unit_of_measurement="M⁻¹ s⁻¹" reading=1.14e+06
binder="Anti-IL-6 antibody, heavy chain S35H, G66D, Q99Y / light chain M32L, M50D, N52S, M88Q (antibody, IgG1, V domains shown, IgG1; variable domains only; VL is variant III) VH: EVQLVESGGGLVQPGGSLRLSCAASGFTFSPFAMHWVRQAPGKGLEWVAKISPGGSWTYYSDTVTDRFTFSLDTSKSTAYLQMNSLRAEDTAVYYCARYLWGYYALDIWGQGTLVTVSS VL: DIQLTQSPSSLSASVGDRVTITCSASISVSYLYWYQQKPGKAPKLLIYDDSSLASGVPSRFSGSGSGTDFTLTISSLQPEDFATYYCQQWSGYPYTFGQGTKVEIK" unit_of_measurement="M⁻¹ s⁻¹" reading=2.17e+06
binder="Anti-IL-6 antibody, heavy chain S35H, G66D, L100Q / light chain WT (antibody, IgG1, V domains shown, IgG1; variable domains only) VH: EVQLVESGGGLVQPGGSLRLSCAASGFTFSPFAMHWVRQAPGKGLEWVAKISPGGSWTYYSDTVTDRFTFSLDTSKSTAYLQMNSLRAEDTAVYYCARQQWGYYALDIWGQGTLVTVSS VL: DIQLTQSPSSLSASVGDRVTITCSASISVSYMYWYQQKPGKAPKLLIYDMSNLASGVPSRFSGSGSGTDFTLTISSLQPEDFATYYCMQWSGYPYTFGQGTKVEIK" unit_of_measurement="M⁻¹ s⁻¹" reading=3.56e+06

Prompt line: Complete the entry with kon for Anti-IL-6 antibody, heavy chain S35H, G66D, Q99V / light chain WT (antibody, IgG1, V domains shown, IgG1; variable domains only) VH: EVQLVESGGGLVQPGGSLRLSCAASGFTFSPFAMHWVRQAPGKGLEWVAKISPGGSWTYYSDTVTDRFTFSLDTSKSTAYLQMNSLRAEDTAVYYCARVLWGYYALDIWGQGTLVTVSS VL: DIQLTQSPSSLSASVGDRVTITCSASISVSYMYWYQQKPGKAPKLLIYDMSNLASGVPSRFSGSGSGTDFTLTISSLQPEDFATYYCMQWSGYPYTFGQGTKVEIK
Response line: 898000

Prompt line: Please report the measured kon for Anti-IL-6 antibody, heavy chain S35H, G66D, L100H / light chain M32L, M50D, N52S, M88Q (antibody, IgG1, V domains shown, IgG1; variable domains only; VL is variant III) VH: EVQLVESGGGLVQPGGSLRLSCAASGFTFSPFAMHWVRQAPGKGLEWVAKISPGGSWTYYSDTVTDRFTFSLDTSKSTAYLQMNSLRAEDTAVYYCARQHWGYYALDIWGQGTLVTVSS VL: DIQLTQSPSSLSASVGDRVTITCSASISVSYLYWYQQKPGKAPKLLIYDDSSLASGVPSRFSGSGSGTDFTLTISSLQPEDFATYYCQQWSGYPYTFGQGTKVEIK
Response line: 1.55e+06
